Origin of values: patent US20080119457A1

System: HSP-90 (heat shock protein 90)
run-description: Determination of affinity for HSP-90 (elution from purine affinity column)
Format: binding
Parameters: key: +++ stands for very high; ++ for high; + for moderate

smiles | relative binding affinity to HSP-90
COc1cccc2c1ccn2-c1ccc(C#N)c(N[C@H]2CC[C@H](O)CC2)c1 | +++
Cc1nc(-c2ccc(C#N)c(NC3CCOCC3)c2)n2c1C(=O)CCC2 | +++
Cn1nc(-c2ccc(C(N)=O)c(NC3CCOCC3)c2)c2c1C(=O)CC(C)(C)C2 | +++
